assayed.target: T1, human amylin receptor 3 (human, UniProt P30988 25-474; O60896 24-148)
T1 sequence (looked up) 1: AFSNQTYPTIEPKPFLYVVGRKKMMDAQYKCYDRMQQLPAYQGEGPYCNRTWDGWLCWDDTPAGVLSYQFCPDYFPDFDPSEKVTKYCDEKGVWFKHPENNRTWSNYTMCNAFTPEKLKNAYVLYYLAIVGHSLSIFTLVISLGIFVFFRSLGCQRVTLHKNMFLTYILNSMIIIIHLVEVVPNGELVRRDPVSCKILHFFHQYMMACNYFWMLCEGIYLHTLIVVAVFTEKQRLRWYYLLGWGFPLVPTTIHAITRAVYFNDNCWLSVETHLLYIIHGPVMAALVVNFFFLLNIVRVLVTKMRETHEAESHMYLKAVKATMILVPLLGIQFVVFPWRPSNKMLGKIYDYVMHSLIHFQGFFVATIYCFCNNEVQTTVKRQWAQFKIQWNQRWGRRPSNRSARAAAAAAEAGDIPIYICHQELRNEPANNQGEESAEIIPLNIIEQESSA
T1 sequence (looked up) 2: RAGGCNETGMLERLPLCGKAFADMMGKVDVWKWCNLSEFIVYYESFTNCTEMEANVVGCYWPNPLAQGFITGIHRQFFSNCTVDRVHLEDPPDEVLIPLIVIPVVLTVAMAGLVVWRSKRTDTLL
assay.method.text: cell-based or functional assay
Ends that are not written are not given here. mPEG40KD = methoxy-PEG of 40 kDa
Listed below: Functional EC50, Human AMY3 values for each entry.
The reply should consist of the numeric value with the unit placed after it.

The examples below pair each entry with its known result.
Record CNTATCATQRLANFLVHSSNNFGPILPPK(mPEG40KD)NVGSNTY-NH2 (ends and bridges not checked, also called Cmpd 87) [[K^30(mPEG40KD)]-Cmpd 58] , field Functional EC50, Human AMY3: 4250 pM

Record CNTATCATQRLANFLVK(mPEG 40 kDa)SSNNFGPILPPTNVGSNTY-NH2 (ends and bridges not checked, also called Cmpd 90) [[K^18(mPEG40KD)]-Cmpd 58] , field Functional EC50, Human AMY3: 850 pM

Record CNTATCATQRLANFLVHSSNNFGK(mPEG40KD)ILPPTNVGSNTY-NH2 (ends and bridges not checked, also called Cmpd 81) [[K^25(mPEG40KD)]-Cmpd 63] , field Functional EC50, Human AMY3: 86 pM

Next:
Record CNTATCATQRLANFLVHSSNNFGPILPPTK(mPEG40KD)VGSNTY-NH2 (ends and bridges not checked, also called Cmpd 78) [[K^31(mPEG40KD)]-Cmpd 61] , field Functional EC50, Human AMY3: 100 pM

Record CNTATCATQRLANFLVHSSNNFGPILPPTNVGK(mPEG40KD)NTY-NH2 (ends and bridges not checked, also called Cmpd 94) [[K^34(mPEG40KD)]-Cmpd 58] , field Functional EC50, Human AMY3: 34 pM

Data origin: patent US20140221282A1
